test system: T1, human VEGF-D (human, UniProt O43915 93-201, limits assumed)
T1 construct: also called hVEGF-D
T1 sequence (looked up): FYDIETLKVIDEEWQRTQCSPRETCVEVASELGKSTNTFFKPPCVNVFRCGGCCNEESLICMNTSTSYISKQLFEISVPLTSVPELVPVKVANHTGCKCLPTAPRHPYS
experiment notes: ELISA, 0.2 ug/ml protein coated, anti-human IgG-Fab-HRP, absorbance 650 nm; antibody concentration not shown
measured property: binding result

>  <binder>
HF2-5 (antibody, V domains shown, also called HF-5) VH: EVQLVESGGGLVQPGGSLRLSCAASGFMIRSHGMQWVRQAPGKGLEYVAGISSDGSWARHSAAVEGRFTISRDDSKNTAYLQMNSLRAEDTAVYYCARDFSTGYGADSIDAWGQGTLVTVSS VL: DIQMTQSPSSLSASVGDRVTITCSGGSDSAYGYGWYQQKPGKAPKTLIYWDDKRPSGVPSRFSGSRSGTDFTLTISSLQPEDFATYYCGAWEYSGGVGIFGQGTKVEIK

>  <experimental result>
no binding

$$$$
>  <binder>
HF2-11 (antibody, V domains shown, also called HF-11; clone HF2-11) VH: EVQLVESGGGLVQPGGSLRLSCAASGFLIRSHGMQWVRQAPGKGLEYVAGISSDGSWVKVAAAVEGRFTISRDDSKNTAYLQMNSLRAEDTAVYYCARDFSTGYGADSIDAWGQGTLVTVSS VL: DIQMTQSPSSLSASVGDRVTITCSGGSSEPLGYGWYQQKPGKAPKTLIYWDDKRPSGVPSRFSGSRSGTDFTLTISSLQPEDFATYYCGAWEYSGGVGIFGQGTKVEIK

>  <experimental result>
no binding

$$$$
>  <binder>
HF2-1 (antibody, V domains shown, also called HF-1) VH: EVQLVESGGGLVQPGGSLRLSCAASNFVFRSHGMQWVRQAPGKGLEYVAGISSDGSWTGYGAAVEGRFTISRDDSKNTAYLQMNSLRAEDTAVYYCARDFSTGYGADSIDAWGQGTLVTVSS VL: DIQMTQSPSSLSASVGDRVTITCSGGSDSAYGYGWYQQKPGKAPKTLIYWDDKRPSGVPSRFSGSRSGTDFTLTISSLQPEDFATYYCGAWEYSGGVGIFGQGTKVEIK

>  <experimental result>
no binding

$$$$
